FYI, the data here is from PubChem BioAssay AID1996.

Conditions: buffer; pH 7.4; 200.0 µM
measured.property: solubility kinetic (µg/mL)
State the answer as a number, implicitly in µg/mL.

                                   molecule   measured_property   val
0  O=C1Nc2ccc(Cl)cc2C(=O)C1(F)c1ccccc1 (centres undefined)  solubility kinetic   1.7
1     CCN(c1ccccc1)S(=O)(=O)c1csc(C(N)=O)c1  solubility kinetic  44.3
2           Cc1ccc(C)c(SCC(=O)c2ccc[nH]2)c1  solubility kinetic  29.9
3         COc1ccc(C(=O)CNc2ccc3ccccc3c2)cc1  solubility kinetic   2.6

So what's the measured solubility kinetic for this one? Cn1c(SCc2ccccc2)nc2c1c(=O)[nH]c(=O)n2C
7

For the molecule O=Cc1ccnc(-c2ccc(OC(=O)c3ccco3)cc2)n1 , what solubility kinetic is on record?
33.1

// solubility kinetic lookup, key: Cc1ccc(C(C)(c2ccc(N)cc2)c2ccc(N)cc2)cc1
10.3

# lookup: solubility kinetic of Cc1ccsc1C(=O)Nc1nc2ccccc2[nH]1
2

Entry under review: Cn1cc(/C=C2\C(=O)NC(=O)N(c3ccccc3)C2=O)c2ccccc21 . Reported solubility kinetic?
1.6

What does the record list as solubility kinetic for N#Cc1ccccc1NC(=O)CN1CC=C(c2ccccc2)CC1 ?
15.7
